Assay: Caspase-3/7 induction in HepG2 cells by small molecules, qHTS cell viability counter screen (AID 1346981); note: nearly all actives have a fitted effect of over 30% in size
Conditions: CellTiter-Fluor fluorescence, 17 h; series mostly up to 92.4 µM
Inconclusive results are not listed. The source made the active and inactive calls. Calls come from the whole dose curve; as a rule, active = well fitted cell-killing curve with a large enough effect in the repeat runs; inconclusive = weak or mixed curves, or effect the other way; inactive = flat fitted curve, though single readings scatter.
Entry note: the call must match one of active, inactive

Would you mind telling me which call this test gave "COc1ccc(CO)cc1" ?
inactive

Queued: "CC(C)(c1ccccc1)c1ccc(O)c(C(C)(C)c2ccccc2)c1"
active

Queued: C=CC(Cl)CCl (configuration not stated)
inactive

Queued: "ClCc1ccccn1"
inactive

Queued: "O=C1C(Cl)=C(Cl)C(=O)c2ccccc21"
active

Queued: "CCOP(=O)(OCC)OCC"
inactive

Queued: N#Cc1nn(-c2c(Cl)cc(C(F)(F)F)cc2Cl)c(N)c1S(=O)C(F)(F)F (configuration not stated)
active

====

Assay: qHTS assay to identify small molecule agonists or antagonists of the thyroid stimulating hormone receptor (TSHR) signaling pathway - wild type cell line counter screen (AID 1259384); note: % is set by controls: 0 for no effect and ±100 for the full control effect
Details: HEK293 wild type, cAMP HTRF counter-screen; series mostly up to 92.4 µM
Inconclusive results are not listed. Activity calls are given as the source filed them. The call rests on the fitted dose curve.
metric: outcome

See these solved cases before continuing.
INSERT INTO measurements (compound, measvalue) VALUES
  ('COP(=S)(OC)Oc1ccc(Sc2ccc(OP(=S)(OC)OC)cc2)cc1', 'inactive'),
  ('Cc1ccc(N=CN(C)C=Nc2ccc(C)cc2C)c(C)c1', 'inactive'),
  ('CCC[CH2][Sn]([Cl])([CH2]CCC)[CH2]CCC', 'inactive'),
  ('CCCCOCCOC(C)=O', 'inactive'),
  ('CC(C)(c1ccccc1)c1ccc(O)cc1', 'inactive');

Sample "CCNCC" — what was its outcome?
inactive

Queued: "CC(C)CON=O"
inactive

Queued: "Cn1c(-c2ccccc2)cc(-c2ccccc2)[n+]1C"
inactive

Queued: "ClCc1ccccn1"
inactive

Queued: CC(C)=CC1C(C(=O)OCc2cccc(Oc3ccccc3)c2)C1(C)C (stereo unspecified)
inactive

Queued: O=C1Nc2ccc(Cl)cc2C(c2ccccc2)=NC1O (stereo unspecified)
inactive

====

Assay: qHTS RealTime-Glo MT Cell Viability Assay in HEK293 cells - 0 hour (AID 1224880); note: nearly all actives have a fitted effect of over 45% in size
Conditions: RealTime-Glo luminescence; series mostly up to 76.8 µM
Records with an inconclusive call do not appear. Calls of active or inactive are those of the source. Calls come from the whole dose curve; as a rule, active = well fitted cell-killing curve with a large enough effect in the repeat runs; inconclusive = weak or mixed curves, or effect the other way; inactive = flat fitted curve, though single readings scatter.
Entry note: the call must match one of TRUE = active, FALSE = inactive

Would you mind telling me which call this test gave "CSc1nc(NC(C)C)nc(NC(C)C)n1" ?
FALSE

Queued: CC(O)CN(CC(C)O)CC(C)O (centres undefined)
FALSE

Queued: "ClC(Cl)(Cl)c1ccccc1"
FALSE

Queued: CCCCCCCCCC(CC)c1ccc(S(=O)(=O)O)cc1 (centres undefined)
FALSE

Queued: "CNC(=O)Oc1cccc2c1OC(C)(C)C2"
FALSE

Queued: "Cn1c(-c2ccccc2)cc(-c2ccccc2)[n+]1C"
FALSE

Queued: OC(c1ccc(Cl)cc1)(c1cncnc1)c1ccccc1Cl (centres undefined)
FALSE

Queued: "C[N+](C)(C)CC(=O)[O-]"
FALSE

Queued: "O=C1C(Cl)=C(Cl)C(=O)c2ccccc21"
TRUE

Queued: "NN=C(N)N"
FALSE

Queued: "CC(C)(c1ccccc1)c1ccc(O)cc1"
FALSE

Queued: CC(C)=CC1C(C(=O)OCN2C(=O)C3=C(CCCC3)C2=O)C1(C)C (centres undefined)
FALSE

Queued: "COc1ccc(CO)cc1"
FALSE

Queued: "COP(=S)(OC)SCn1nnc2ccccc2c1=O"
FALSE

====

Target: Estrogen receptor (Homo sapiens) (UniProt P03372)
Sequence (P03372 whole entry, looked up): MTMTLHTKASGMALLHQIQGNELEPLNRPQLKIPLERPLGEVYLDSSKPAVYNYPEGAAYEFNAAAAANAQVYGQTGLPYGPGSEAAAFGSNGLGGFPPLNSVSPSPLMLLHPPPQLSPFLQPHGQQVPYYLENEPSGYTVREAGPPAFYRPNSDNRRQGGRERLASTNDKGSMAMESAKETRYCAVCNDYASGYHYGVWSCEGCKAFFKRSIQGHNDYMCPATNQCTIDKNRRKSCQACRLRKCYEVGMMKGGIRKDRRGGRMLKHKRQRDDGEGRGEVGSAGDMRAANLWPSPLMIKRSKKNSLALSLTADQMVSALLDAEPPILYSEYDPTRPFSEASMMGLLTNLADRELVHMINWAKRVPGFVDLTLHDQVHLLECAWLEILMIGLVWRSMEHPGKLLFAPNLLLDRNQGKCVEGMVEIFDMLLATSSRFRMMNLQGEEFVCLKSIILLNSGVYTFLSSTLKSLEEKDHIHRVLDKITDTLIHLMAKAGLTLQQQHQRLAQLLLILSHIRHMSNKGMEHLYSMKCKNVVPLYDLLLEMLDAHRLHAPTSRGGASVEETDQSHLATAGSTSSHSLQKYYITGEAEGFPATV
Assay: qHTS assay to identify small molecule antagonists of the estrogen receptor alpha (ER-alpha) signaling pathway (AID 743069)
Conditions: HEK293 ER-alpha-UAS-bla, beta-lactamase ratio, antagonist mode; series mostly up to 69.4 µM
Active and inactive are the calls of the source. Calls follow the shape of the dose curve; as a rule, active = well fitted curve in the direction sought with a large enough effect in the signal ratio in the repeat runs (not every such curve was filed as active); inconclusive = weak or mixed curves, or effect the other way; inactive = no such curve, though single readings can be large or run the other way; the % refers to the signal ratio.
Entry note: the call must match one of true (1) (active), false (0) (inactive)

Would you mind telling me which call this test gave "CC(C)(C#N)N=NC(C)(C)C#N" ?
false (0)

Queued: "CC(C)Nc1nc(Cl)nc(NC(C)C)n1"
false (0)

Queued: OC(c1ccc(Cl)cc1)(c1cncnc1)c1ccccc1Cl (stereo not given)
true (1)

Queued: "CCOS(=O)(=O)OCC"
false (0)

Queued: "Oc1ccc(Cl)cc1Cl"
false (0)

Queued: "CC(C)COC(=O)c1ccccc1C(=O)OCC(C)C"
false (0)

Queued: "CC(C)(c1ccccc1)c1ccc(O)c(C(C)(C)c2ccccc2)c1"
false (0)

Queued: "O=NN1CCOCC1"
false (0)

Queued: "CCC/C=N/O"
false (0)

Queued: "CCOP(=S)(OCC)SCn1c(=O)oc2cc(Cl)ccc21"
false (0)

Queued: "CCOP(=S)(OCC)SCSC(C)(C)C"
false (0)

Queued: "Nc1ccc2ccccc2c1"
false (0)

Queued: "CC(C)(c1ccccc1)c1ccc(O)cc1"
true (1)

Queued: "CCCCCCCCCCCCCl"
false (0)

Queued: "CCCCOC(=O)COC(=O)c1ccccc1C(=O)OCCCC"
false (0)

====

Test: qHTS assay to identify small molecule agonists of H2AX - cell viability counter screen (AID 1224847); note: nearly all actives have a fitted effect of over 30% in size
Conditions: CHO-K1 viability, CellTiter-Glo luminescence, 3 h; series mostly up to 154 µM
Records with an inconclusive call do not appear. Active and inactive are the calls of the source. Calls follow the shape of the full dose curve.
Entry note: the call must match one of Yes = active, No = inactive

Would you mind telling me which call this test gave "COP(=S)(OC)SCn1nnc2ccccc2c1=O" ?
No

Queued: "CSc1nc(NC(C)C)nc(NC(C)C)n1"
No

Queued: "COc1ccc(O)c(C(C)(C)C)c1"
No

Queued: "O=NN1CCOCC1"
No

Queued: "Nc1ccc2ccccc2c1"
No

Queued: CC(C)(c1ccc(OCC2CO2)cc1)c1ccc(OCC2CO2)cc1 (stereo unspecified)
No

Queued: "CCCCOC(=O)COC(=O)c1ccccc1C(=O)OCCCC"
No

Queued: "O=C(O)CF"
No

Queued: "CNC(=S)S"
No

Queued: "ClC(Cl)=C(Cl)C(Cl)=C(Cl)Cl"
No

Queued: "O=[N+]([O-])c1ccc(Nc2ccccc2)cc1"
Yes

Queued: "CCOP(=O)(OCC)OCC"
No

Queued: "CC(C)CON=O"
No

Queued: "Cc1cccc(N=Nc2ccc(N(C)C)cc2)c1"
Yes

Queued: "C[N+](C)(C)C"
No

Queued: "CCCCOCCOC(C)=O"
No

====

Assay: qHTS assay to identify small molecule antagonists of the sonic hedgehog signaling (Shh) pathway (AID 1259369); note: nearly all actives have a fitted effect of over 45% in size
Settings: NIH/3T3 Gli1-Luc reporter, Shh antagonist, luminescence 24 h; series mostly up to 92.4 µM
Records with an inconclusive call do not appear. Activity calls are given as the source filed them. Calls come from the whole dose curve.
Entry note: the call must match one of YES for active, NO for inactive

Would you mind telling me which call this test gave "CCNCC" ?
NO

Queued: CC(C)=CC1C(C(=O)OCN2C(=O)C3=C(CCCC3)C2=O)C1(C)C (stereo not drawn)
NO

Queued: "Cc1ccc([N+](=O)[O-])cc1"
NO

Queued: "N#CC(c1ccccc1)c1ccccc1"
NO

Queued: "Nc1ccc([N+](=O)[O-])cc1N"
YES

Queued: CC1CC(=O)O1 (stereo not drawn)
NO

Queued: "Clc1cccc(C(Cl)(Cl)Cl)n1"
NO

Queued: "CCCCOCCOC(C)=O"
NO

====

Assay: qHTS assay to identify small molecule antagonists of the constitutive androstane receptor (CAR) signaling pathway - cell viability counter screen (AID 1224837); note: nearly all actives have a fitted effect of over 45% in size
Conditions: HepG2-CYP2B6-hCAR viability, CellTiter-Fluor, 23 h, co-treated with 50 nM CITCO; series mostly up to 92.4 µM
Records with an inconclusive call do not appear. Calls of active or inactive are those of the source. Calls follow the shape of the dose curve; as a rule, active = well fitted cell-killing curve with a large enough effect in the repeat runs; inconclusive = weak or mixed curves, or effect the other way; inactive = flat fitted curve, though single readings scatter.
Entry note: the call must match one of 1 (yes) (active), 0 (no) (inactive)

Would you mind telling me which call this test gave "CCC(=O)Nc1ccc(Cl)c(Cl)c1" ?
0 (no)

Queued: c1ccc(C2CO2)cc1 (centres undefined)
0 (no)

Queued: "NN=C(N)N"
0 (no)

Queued: CC(C)=CC1C(C(=O)OCN2C(=O)C3=C(CCCC3)C2=O)C1(C)C (centres undefined)
0 (no)

Queued: "CCCCCCCCCc1ccc(O)cc1"
0 (no)

Queued: CCCCC(C#N)(Cn1cncn1)c1ccc(Cl)cc1 (centres undefined)
0 (no)

Queued: "CN(C)c1ccccc1"
0 (no)

Queued: "COP(=S)(OC)SCn1nnc2ccccc2c1=O"
0 (no)

Queued: "Cn1c(-c2ccccc2)cc(-c2ccccc2)[n+]1C"
0 (no)

Queued: "Oc1ccc(Cl)cc1Cc1ccccc1"
0 (no)

Queued: "CC[n+]1c(-c2ccccc2)c2cc(N)ccc2c2ccc(N)cc21"
1 (yes)

Queued: "O=C(O)c1nn(Cc2ccc(Cl)cc2Cl)c2ccccc12"
0 (no)

Queued: "COc1ccc(C=O)cc1OC"
0 (no)

Queued: CC1CC(=O)O1 (centres undefined)
0 (no)

This collection of values is drawn from PubChem BioAssay (Tox21).
